molecular target: recombinant human OX40 fused to a His-tag (Acro Biosystems, cat. no. OX0-H5224) (human) (UniProt P43489); test: BLI cross-block; first Ab (competitor): IgG1-CD134-49B4-RRE
Sequence (P43489 29-214 limits assumed): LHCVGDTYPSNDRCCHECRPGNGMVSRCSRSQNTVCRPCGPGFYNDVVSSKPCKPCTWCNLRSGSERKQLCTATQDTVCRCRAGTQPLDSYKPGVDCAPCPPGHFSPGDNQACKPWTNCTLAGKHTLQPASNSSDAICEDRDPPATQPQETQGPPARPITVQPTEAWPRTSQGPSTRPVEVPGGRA
Documented association response across a set of binders

binder	association response [nm]
IgG1-CD134-Hu106 (antibody, from another filing, V domains shown) VH: QVQLVQSGSELKKPGASVKVSCKASGYTFTDYSMHWVRQAPGQGLKWMGWINTETGEPTYADDFKGRFVFSLDTSVSTAYLQISSLKAEDTAVYYCANPYYDYVSYYAMDYWGQGTTVTVSS VL: DIQMTQSPSSLSASVGDRVTITCKASQDVSTAVAWYQQKPGKAPKLLIYSASYLYTGVPSRFSGSGSGTDFTFTISSLQPEDIATYYCQQHYSTPRTFGQGTKLEIK	-0.01
IgG1-CD134-MEDI0562 (antibody, INN chains, looked up, V domains shown, IgG1) VH: QVQLQESGPGLVKPSQTLSLTCAVYGGSFSSGYWNWIRKHPGKGLEYIGYISYNGITYHNPSLKSRITINRDTSKNQYSLQLNSVTPEDTAVYYCARYKYDYDGGHAMDYWGQGTLVTVSS VL: DIQMTQSPSSLSASVGDRVTITCRASQDISNYLNWYQQKPGKAPKLLIYYTSKLHSGVPSRFSGSGSGTDYTLTISSLQPEDFATYYCQQGSALPWTFGQGTKVEIK	0.15
IgG1-CD134-ABBV368 (antibody, INN chains, looked up, V domains shown, IgG1) VH: EVQLVESGGGLVQPGGSLRLSCAASGFTFSRYGMSWVRQAPGKGLELVATINSNGGRTYYPDSVKGRFTISRDNAKNSLYLQMNSLRAEDTAVYYCAREGITTAYAMDYWGQGTTVTVSS VL: DIVMTQSPDSLAVSLGERATINCKASQSVDYDGDSYMHWYQQKPGQPPKLLIYAASILESGVPDRFSGSGSGTDFTLTISSLQAEDVAVYYCQQSNEDPRTFGGGTKVEIK	0
IgG1-CD134-RG7888 (antibody, INN chains, looked up, V domains shown, IgG1) VH: EVQLVQSGAEVKKPGASVKVSCKASGYTFTDSYMSWVRQAPGQGLEWIGDMYPDNGDSSYNQKFRERVTITRDTSTSTAYLELSSLRSEDTAVYYCVLAPRWYFSVWGQGTLVTVSS VL: DIQMTQSPSSLSASVGDRVTITCRASQDISNYLNWYQQKPGKAPKLLIYYTSRLRSGVPSRFSGSGSGTDFTLTISSLQPEDFATYYCQQGHTLPPTFGQGTKVEIK	0.02
IgG1-CD134-GBR830 (antibody, INN chains, looked up, V domains shown, IgG1) VH: QVTLKESGPALVKPTQTLTLTCSFSGFSLSTSGMGVGWIRQPPGKALEWIAHIWWDDDKYYNTALKTRLTISKDTSKNQVVLTMTNMDPVDTATYYCARIDWDGFAYWGQGTLVTVSS VL: EIVLTQSPATLSLSPGERATLSCRASSSVSYMHWYQQKPGQAPRPWIYATSNRATGIPARFSGSGSGTDYTLTISSLEPEDFAVYYCQQWSSNPWTFGQGTKVEIK	0
